Tested on: MS2 coat protein
Experiment: apparent KD of MS2 coat protein; designed switch direction (-1 OFF switch, 1 ON switch): 1; higher = weaker reporter binding
Conditions: input ligand: microRNA oligo, concentration not stated
# apparent KD of MS2 coat protein per record follows
Number in nM, nothing else.

[[record]]
macromolecule_sequence = "GCGGAGACGUCAGGAUAUCCAUGGAAGACACAUGAGGAUCACCCAUGUGGGAGGGAAACCAGGAGGGAGAAGGGACGGAAACGC [ssng2 v2 d] (Eterna round: R96, puzzle: Same State NG 2)"
measured_metric = "apparent KD of MS2 coat protein"
unit_symbol = "nM"
observed_value = 9.63


Query :: Output measured apparent KD of MS2 coat protein for this item: GCUCGUGGUAUUGUCUACAUGAGGAUCACCCAUGUGGGUGCGGAGGAUAUCUACGUGUCUCAUGUAGAGAAGGUCGUCACGAGC [SameState NG3 #100] (Eterna round: R96, puzzle: Same State NG 3)
Result :: 119

Query :: Output measured apparent KD of MS2 coat protein for this item: GGAGCCGGCCUAGGAUAUUUCAUUUUAAAACAUGAGGAUCACCCAUGUAGGCCAGAAGGCCUUGGGAAGAAGGAGGUCGGCUCC [Loop Effect - U24,U25,U26] (Eterna round: R96, puzzle: Same State NG 2)
Result :: 33.2

Query :: Output measured apparent KD of MS2 coat protein for this item: ACAUGAGAGAAAGGAUAUCUUGUACCUACAUGUGACAUGAGGAUCACCCAUGUGGUAAGUAUGACGGAGAAGGUUCAGAUAUGU [Equivalance 72 - Jieux - Same State NG 2] (Eterna round: R96, puzzle: Same State NG 2)
Result :: 125
